Species: Rattus norvegicus
Type: toxicity, organism-based, Sprague-Dawley
settings: in vivo, po, 0 mg/kg, 24 h, vehicle control, tissue Blood, route oral GAVAGE, dose level Control, time 1 day, vehicle 100 % WATER
Description: DrugMatrix - Regimen: Single
reported_property: ABSOLUTE BASOPHIL (cells/µL)
Provide only the numeric value, understood in cells/µL.

COCCc1ccc(OCC(O)CNC(C)C)cc1 (configuration not stated) : 63.3

Lab note: CCOC(=O)N1CCC(=C2c3ccc(Cl)cc3CCc3cccnc32)CC1 gave ABSOLUTE BASOPHIL of 63.3

###

Organism: Rattus norvegicus
experiment: DrugMatrix - Regimen: Daily Repeat
Format: toxicity, organism-based, Sprague-Dawley
Design: regimen Daily Repeat, gender Male, age 6-8 weeks
settings: in vivo, po, 0 mg/kg, 120 h, tissue Plasma, route oral GAVAGE, dose level Control, time 5 day, vehicle .5 % CMC
reported_property: POTASSIUM (MEQ/L)
Provide only the numeric value, understood in MEQ/L.

ClC(Br)Br : 6.45
ClC(Cl)Br : 6.45
CC(C)(C)NC(=O)[C@@H]1C[C@@H]2CCCC[C@@H]2CN1C[C@@H](O)[C@H](Cc1ccccc1)NC(=O)[C@H](CC(N)=O)NC(=O)c1ccc2ccccc2n1 : 6.82

Lab note: Cc1ccc(/N=C/N(C)/C=N/c2ccc(C)cc2C)c(C)c1 gave POTASSIUM of 7.08
